METHOD NOTES: Solubility in Japanese Pharmacopeia First Fluid (JP1) and Second Fluid (JP2)
Type: physicochemical
EXPERIMENTAL CONTEXT: pH 6.8, aqueous buffer, thermodynamic from solid; Japanese Pharmacopeia Second Fluid (JP2), room temperature; read-out: Solubility JP2
Experimental: A 10 mmol/L solution of the test compound was prepared in DMSO and dispensed 100 μL of 10 mmol/L DMSO stock solutions into labeled glass tubes in duplicate, one for Japanese Pharmacopeia First Fluid (JP1) and second for Japanese Pharmacopeia Second Fluid (JP2). After evaporation of DMSO from each tube, 500 μL of JP1 and JP2 fluid were added in each tube, respectively. These tubes were sonicated for 1 minute and placed on shaker for 30 minutes with an interval of 30 seconds at every 5 minute. […]
Tag: yes (1) if measured solubility at 30 min is not below 400 µg/mL, no (0) if it is.

> print(dat)
                            smiles.notation  category
1  Cc1nn(C)cc1-c1cc(N2CCOCC2)c2nc(C(=O)N3CCC(N4CCOCC4)CC3)[nH]c2n1   yes (1)
2  Cc1nn(C)cc1-c1nc2[nH]c(C(=O)N3CCC(N4CCOCC4)CC3)nc2c(N2CCOCC2)c1F   yes (1)
3  O=C(c1nc2c(N3CCOCC3)nc(-c3cn[nH]c3)nc2[nH]1)N1CCC(N2CCOCC2)CC1    no (0)
4  Cn1cc(-c2cc(N3CCOCC3)c3nc(C(=O)N4CCC(N5CCOCC5=O)CC4)[nH]c3n2)cn1    no (0)
5  CN(C)C1CCN(C(=O)c2nc3c(N4CCOCC4)c(F)c(-c4cnn(C)c4)nc3[nH]2)CC1    no (0)

---

TESTED ON: recombinant PI3K δ enzyme (Homo sapiens (Human))
METHOD NOTES: In vitro enzyme assay (Kinase-Glo luminescent kinase assay), PI3Kδ
Format: biochemical
PROPERTY LABEL: IC50 (nM)

> print(dat)
                             smiles.notation                                 tested.on  value
 1  Cn1cc(-c2nc(N3CCOCC3)c3nc(C(=O)N4CCC(N5CCOCC5=O)CC4)[nH]c3n2)cn1  recombinant PI3K δ enzyme (Homo sapiens (Human))     42
 2  Cn1cc(-c2nc(N3CCOCC3)c3nc(C(=O)N4CCN(C(=O)Cc5cnccn5)CC4)[nH]c3n2)cn1  recombinant PI3K δ enzyme (Homo sapiens (Human))    140
 3  Cn1cc(-c2nc3[nH]c(C(=O)NCCN4CCOCC4)nc3c(N3CCOCC3)c2F)cn1  recombinant PI3K δ enzyme (Homo sapiens (Human))     32
 4  Cn1cc(-c2nc(N3CCOCC3)c3nc(C(=O)N4CC[C@@H](NS(C)(=O)=O)C4)[nH]c3n2)cn1  recombinant PI3K δ enzyme (Homo sapiens (Human))     20
 5  Cc1n[nH]cc1-c1nc(N2CCOCC2)c2nc(C(=O)N3CCC(N4CCOCC4)CC3)[nH]c2n1  recombinant PI3K δ enzyme (Homo sapiens (Human))     21
 6  Cn1cc(-c2cc(N3CCOCC3)c3nc(C(=O)NCCN4CCOCC4)[nH]c3n2)cn1  recombinant PI3K δ enzyme (Homo sapiens (Human))    147
 7  Cc1nn(C)cc1-c1cc(N2CCOCC2)c2nc(C(=O)N3CCC(N4C[C@@H](C)O[C@@H](C)C4)CC3)n(C)c2n1  recombinant PI3K δ enzyme (Homo sapiens (Human))     72
 8  Cc1nn(C)c(C)c1-c1nc2[nH]c(C(=O)N3CCC(N4CCOCC4)CC3)nc2c(N2CCOCC2)c1C  recombinant PI3K δ enzyme (Homo sapiens (Human))    365
 9  Cc1nn(C)cc1-c1cc(N2CCOCC2)c2nc(C(=O)N3CCC(N4CCOCC4)CC3)n(C)c2n1  recombinant PI3K δ enzyme (Homo sapiens (Human))     22
10  Cc1n[nH]c(C)c1-c1nc(N2CCOCC2)c2nc(C(=O)N3CCC(N4CCOCC4)CC3)[nH]c2n1  recombinant PI3K δ enzyme (Homo sapiens (Human))     88

---

TESTED ON: recombinant PI3K δ enzyme (Homo sapiens (Human))
METHOD NOTES: In vitro enzyme assay (Kinase-Glo luminescent kinase assay), PI3Kδ
Type: biochemical
Classify: t when IC50 is strictly less than 200 nM; f when IC50 is not.

> print(dat)
                            smiles.notation                                 tested.on  category
1  C[C@@H]1CN(C2CCN(C(=O)c3nc4c(N5CCOCC5)cc(-c5cn[nH]c5)nc4[nH]3)CC2)C[C@H](C)O1  recombinant PI3K δ enzyme (Homo sapiens (Human))         t
2  CC(C)n1cc(-c2nc(N3CCOCC3)c3nc(C(=O)N4CCC(N5CCOCC5)CC4)[nH]c3n2)cn1  recombinant PI3K δ enzyme (Homo sapiens (Human))         f
3  CN(C)C(=O)c1nc2c(N3CCOCC3)nc(-c3cnn(C)c3)nc2[nH]1  recombinant PI3K δ enzyme (Homo sapiens (Human))         t
4  O=C(c1nc2c(N3CCOCC3)nc(-c3cn[nH]c3)nc2[nH]1)N1CCC(N2CCOCC2=O)CC1  recombinant PI3K δ enzyme (Homo sapiens (Human))         t
5  CN(CCN1CCOCC1)C(=O)c1nc2c(N3CCOCC3)nc(-c3cnn(C)c3)nc2[nH]1  recombinant PI3K δ enzyme (Homo sapiens (Human))         t

---

# Lookup of reported IC50 keyed by entry
TESTED ON: PI3Kα (Homo sapiens (Human), UniProt P42336)
Sequence (P42336 whole entry, species assumed): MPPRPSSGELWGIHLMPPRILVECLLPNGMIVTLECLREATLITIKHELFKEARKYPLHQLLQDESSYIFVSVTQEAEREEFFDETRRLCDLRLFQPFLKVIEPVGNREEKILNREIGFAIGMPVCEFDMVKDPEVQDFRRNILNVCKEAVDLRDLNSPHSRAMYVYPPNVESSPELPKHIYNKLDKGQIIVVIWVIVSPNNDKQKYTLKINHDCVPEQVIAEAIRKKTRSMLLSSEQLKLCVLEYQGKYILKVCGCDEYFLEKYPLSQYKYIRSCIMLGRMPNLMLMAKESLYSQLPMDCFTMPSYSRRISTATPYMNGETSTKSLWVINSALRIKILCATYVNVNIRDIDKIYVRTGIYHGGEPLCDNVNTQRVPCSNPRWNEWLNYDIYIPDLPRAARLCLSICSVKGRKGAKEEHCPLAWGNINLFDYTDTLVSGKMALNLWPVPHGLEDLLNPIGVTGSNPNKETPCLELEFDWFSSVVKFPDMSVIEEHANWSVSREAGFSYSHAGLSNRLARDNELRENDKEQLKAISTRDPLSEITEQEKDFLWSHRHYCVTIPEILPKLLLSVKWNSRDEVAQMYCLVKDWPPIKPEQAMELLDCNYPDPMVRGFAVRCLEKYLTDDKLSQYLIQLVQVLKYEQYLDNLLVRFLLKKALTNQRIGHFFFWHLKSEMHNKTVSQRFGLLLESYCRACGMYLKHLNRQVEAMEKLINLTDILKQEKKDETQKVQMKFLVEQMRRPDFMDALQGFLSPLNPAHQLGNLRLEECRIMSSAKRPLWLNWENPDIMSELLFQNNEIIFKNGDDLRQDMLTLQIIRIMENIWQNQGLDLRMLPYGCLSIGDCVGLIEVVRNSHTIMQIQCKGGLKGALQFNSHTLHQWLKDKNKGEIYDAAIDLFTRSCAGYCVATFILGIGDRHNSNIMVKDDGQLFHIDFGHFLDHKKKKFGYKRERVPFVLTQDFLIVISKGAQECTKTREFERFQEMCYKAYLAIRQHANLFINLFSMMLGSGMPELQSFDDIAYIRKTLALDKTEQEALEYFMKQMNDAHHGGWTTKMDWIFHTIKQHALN
Sequence (P27986 whole entry partner, species assumed): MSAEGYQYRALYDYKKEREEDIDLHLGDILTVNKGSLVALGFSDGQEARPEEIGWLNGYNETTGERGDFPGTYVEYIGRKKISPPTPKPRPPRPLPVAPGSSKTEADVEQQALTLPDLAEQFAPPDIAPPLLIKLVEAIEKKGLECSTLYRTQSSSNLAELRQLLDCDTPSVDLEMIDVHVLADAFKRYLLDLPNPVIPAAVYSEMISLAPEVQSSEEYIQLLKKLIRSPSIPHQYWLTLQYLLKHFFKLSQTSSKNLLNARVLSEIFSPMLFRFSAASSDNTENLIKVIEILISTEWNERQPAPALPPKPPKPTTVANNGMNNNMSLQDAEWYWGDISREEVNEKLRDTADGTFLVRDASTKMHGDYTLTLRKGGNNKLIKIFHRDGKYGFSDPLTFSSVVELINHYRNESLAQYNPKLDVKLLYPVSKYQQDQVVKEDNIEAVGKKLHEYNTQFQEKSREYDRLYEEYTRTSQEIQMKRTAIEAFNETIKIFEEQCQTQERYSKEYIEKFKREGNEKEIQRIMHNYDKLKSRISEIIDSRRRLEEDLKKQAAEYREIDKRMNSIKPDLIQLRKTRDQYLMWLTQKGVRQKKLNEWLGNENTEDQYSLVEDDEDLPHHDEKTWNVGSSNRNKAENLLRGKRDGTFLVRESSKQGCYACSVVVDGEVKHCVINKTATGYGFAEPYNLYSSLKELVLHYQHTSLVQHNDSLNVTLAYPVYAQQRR
PROPERTY LABEL: IC50

> print(dat)
                                   compound    value
1  Cn1cc(-c2nc3[nH]c(C(=O)N4CCC(N5CCOCC5)CC4)nc3c(N3CCOCC3)c2F)cn1 [compound 98]  > 10 µM
2  C[C@@H]1CN(C2CCN(C(=O)c3nc4c(N5CCOCC5)nc(-c5cnn(C)c5)nc4[nH]3)CC2)C[C@H](C)O1 [compound 5]   > 1 µM
3  Cn1cc(-c2nc3[nH]c(C(=O)N4CCC5(CC4)COC5)nc3c(N3CCOCC3)c2F)cn1 [compound 79]   > 1 µM
4  O=C(c1nc2c(N3CCOCC3)nc(-c3cn[nH]c3)nc2[nH]1)N1CCC2(CC1)COC2 [compound 72]   > 1 µM
5  Cn1cc(-c2nc(N3CCOCC3)c3nc(C(=O)NCCCN4CCOCC4)n(C)c3n2)cn1 [compound 67]   > 1 µM

---

TESTED ON: recombinant PI3K δ enzyme (Homo sapiens (Human))
METHOD NOTES: In vitro enzyme assay (Kinase-Glo luminescent kinase assay), PI3Kδ
Type: biochemical
PROPERTY LABEL: log10 of IC50 (log10 of the value in nM)

> print(dat)
                            smiles.notation  value
1  Cn1cc(-c2nc(N3CCOCC3)c3nc(C(=O)NCCCN4CCOCC4)n(C)c3n2)cn1   1.04
2  Cn1cc(-c2nc(N3CCOCC3)c3nc(C(=O)NCCCN4CCCC4=O)n(C)c3n2)cn1   1.78
3  Cc1c(-c2cnn(C)c2)nc2[nH]c(C(=O)N3CCC(N4CCOCC4)CC3)nc2c1N1CCOCC1   2.27
4  Cn1cc(-c2nc(N3CCOCC3)c3nc(C(=O)N4CCN(C(=O)c5ncccn5)CC4)[nH]c3n2)cn1   2.00
5  CN1CCN(C(=O)c2nc3c(N4CCOCC4)nc(-c4cnn(C)c4)nc3[nH]2)CC1   1.84
6  Cn1cc(-c2nc(N3CCOCC3)c3nc(C(=O)N4CCNCC4)[nH]c3n2)cn1   1.93

---

TESTED ON: recombinant PI3K δ enzyme (Homo sapiens (Human), UniProt O00329)
Sequence (O00329 whole entry, species assumed): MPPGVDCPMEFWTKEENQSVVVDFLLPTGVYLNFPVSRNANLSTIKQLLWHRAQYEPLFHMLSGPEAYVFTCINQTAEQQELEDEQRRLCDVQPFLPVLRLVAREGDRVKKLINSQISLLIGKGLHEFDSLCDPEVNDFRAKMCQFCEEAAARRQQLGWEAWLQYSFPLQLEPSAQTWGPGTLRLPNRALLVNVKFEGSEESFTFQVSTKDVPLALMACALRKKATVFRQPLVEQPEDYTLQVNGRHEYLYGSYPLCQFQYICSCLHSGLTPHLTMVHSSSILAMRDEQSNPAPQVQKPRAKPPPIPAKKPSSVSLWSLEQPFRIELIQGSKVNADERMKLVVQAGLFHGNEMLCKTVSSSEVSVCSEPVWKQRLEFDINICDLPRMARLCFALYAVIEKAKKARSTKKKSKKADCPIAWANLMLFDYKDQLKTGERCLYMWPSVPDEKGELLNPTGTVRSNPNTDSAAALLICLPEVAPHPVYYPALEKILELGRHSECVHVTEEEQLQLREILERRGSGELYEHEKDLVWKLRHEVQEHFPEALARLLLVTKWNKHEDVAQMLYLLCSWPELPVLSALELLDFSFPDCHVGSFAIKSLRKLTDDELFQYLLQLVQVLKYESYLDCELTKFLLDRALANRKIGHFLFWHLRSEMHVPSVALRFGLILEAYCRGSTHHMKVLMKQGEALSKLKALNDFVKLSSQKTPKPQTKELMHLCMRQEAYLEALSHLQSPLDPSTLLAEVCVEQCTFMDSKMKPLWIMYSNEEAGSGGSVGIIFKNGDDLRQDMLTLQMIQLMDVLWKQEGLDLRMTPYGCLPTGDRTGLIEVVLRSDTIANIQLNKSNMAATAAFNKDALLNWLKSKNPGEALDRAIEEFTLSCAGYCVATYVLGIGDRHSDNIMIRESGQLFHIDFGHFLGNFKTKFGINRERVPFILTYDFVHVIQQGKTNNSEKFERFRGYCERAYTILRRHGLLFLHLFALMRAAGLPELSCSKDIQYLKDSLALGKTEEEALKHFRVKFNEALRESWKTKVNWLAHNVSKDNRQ
Sequence (P27986 whole entry partner, species assumed): as the sequence (P27986 whole entry partner, species assumed) above
METHOD NOTES: In vitro enzyme assay (Kinase-Glo luminescent kinase assay), PI3Kδ
Assay type: biochemical
Protocol: The Kinase-Glo luminescent kinase assay kit (from Promega) was used to measure kinase activity. In this assay, amount of ATP remaining in solution following a kinase reaction is measured. […] At the end of incubation period the equal volume of Kinase-Glo plus (Promega, V3772), was added per well and the luminescence was measured after incubating for 10 minutes at room temperature in dark. Results were calculated by measuring the luminescence units of test samples to blanks containing no enzyme. […]
Classify: 1 when IC50 is strictly less than 60 nM; -1 when IC50 is not.

> print(dat)
                             smiles.notation  category
 1  Cn1cc(-c2cc(N3CCOCC3)c3nc(C(=O)N4CCC(C(C)(C)O)CC4)[nH]c3n2)cn1        -1
 2  CCOC(=O)CN1CCN(C(=O)c2nc3c(N4CCOCC4)nc(-c4cnn(C)c4)nc3[nH]2)CC1         1
 3  Cn1cc(-c2nc(N3CCOCC3)c3nc(C(=O)NCCCN4CCCC4=O)[nH]c3n2)cn1         1
 4  Cc1c(-c2nc(N3CCOCC3)c3nc(C(=O)N4CCC(N5CCOCC5)CC4)[nH]c3n2)cnn1C         1
 5  C[C@@H]1CN(C2CCN(C(=O)c3nc4c(N5CCOCC5)cc(-c5cnn(C)c5)nc4[nH]3)CC2)C[C@H](C)O1         1
 6  Cc1nn(C)cc1-c1nc(N2CCOCC2)c2nc(C(=O)N3CCC(C(C)(C)O)CC3)[nH]c2n1         1
 7  CN1CCN(C2CN(C(=O)c3nc4c(N5CCOCC5)cc(-c5cnn(C)c5)nc4[nH]3)C2)CC1=O         1
 8  Cc1nn(C)cc1-c1nc2[nH]c(C(=O)N3CCC(C(C)(C)O)CC3)nc2c(N2CCOCC2)c1F         1
 9  Cn1cc(-c2nc(N3CCOCC3)c3nc(C(=O)N4CCN(c5ncccn5)CC4)[nH]c3n2)cn1        -1
10  Cn1cc(-c2nc(N3CCOCC3)c3nc(C(=O)N4CCC(N5CCOCC5)CC4)[nH]c3n2)cn1         1
11  CN1CCN(C2CN(C(=O)c3nc4c(N5CCOCC5)nc(-c5cnn(C)c5)nc4[nH]3)C2)CC1=O         1
12  Cn1cc(-c2cc(N3CCOCC3)c3nc(C(=O)N4CC(N5CCOCC5)C4)[nH]c3n2)cn1         1
13  CCn1c(C(=O)N2CCC(N(C)C)CC2)nc2c(N3CCOCC3)nc(-c3cnn(C)c3)nc21        -1
14  CN(C)C1CCN(C(=O)c2nc3c(N4CCOCC4)nc(-c4cnn(C)c4)nc3[nH]2)CC1        -1
15  Cn1cc(-c2nc3c(nc(C(=O)N4CCC(N5CCOCC5)CC4)n3C)c(N3CCOCC3)c2F)cn1        -1
16  COCCNC(=O)c1nc2c(N3CCOCC3)nc(-c3cnn(C)c3)nc2[nH]1        -1
17  Cn1cc(-c2nc3[nH]c(C(=O)N4CCN(C(C)(C)C(N)=O)CC4)nc3c(N3CCOCC3)c2F)cn1         1
18  Cn1cc(-c2cc(N3CCOCC3)c3nc(C(=O)N4CCC5(CC4)COC5)[nH]c3n2)cn1         1
19  Cn1cc(-c2nc3c(nc(C(=O)N4CCC5(CC4)COC5)n3C)c(N3CCOCC3)c2F)cn1        -1
20  Cn1cc(-c2nc(N3CCOCC3)c3nc(C(=O)N4CCC5(CC4)CNC(=O)C5)[nH]c3n2)cn1         1
21  Cc1nn(C)cc1-c1nc(N2CCOCC2)c2nc(C(=O)N3CCC(N4CCOCC4)CC3)[nH]c2n1         1
